biological target: OCT2 (Homo sapiens, UniProt O15244); experiment: in vitro; conditions: human, pH 7.3
Sequence (O15244 whole entry): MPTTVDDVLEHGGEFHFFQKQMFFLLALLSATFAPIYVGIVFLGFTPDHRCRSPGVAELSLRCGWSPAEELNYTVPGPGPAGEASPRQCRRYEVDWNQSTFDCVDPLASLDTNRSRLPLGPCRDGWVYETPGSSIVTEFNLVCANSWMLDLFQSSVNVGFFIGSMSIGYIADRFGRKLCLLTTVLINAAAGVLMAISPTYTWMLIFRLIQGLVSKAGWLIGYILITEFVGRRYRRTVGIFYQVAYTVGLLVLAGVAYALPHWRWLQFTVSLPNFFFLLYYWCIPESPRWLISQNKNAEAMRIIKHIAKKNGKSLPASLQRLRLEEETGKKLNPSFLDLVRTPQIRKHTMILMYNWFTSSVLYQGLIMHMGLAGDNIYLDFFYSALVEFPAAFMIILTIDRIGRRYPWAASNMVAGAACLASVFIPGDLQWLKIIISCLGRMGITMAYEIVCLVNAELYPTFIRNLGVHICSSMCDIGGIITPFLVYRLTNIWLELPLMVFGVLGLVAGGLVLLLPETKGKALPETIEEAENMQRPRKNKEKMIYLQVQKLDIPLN
Give % Inhibition of OCT2-dependent MF uptake at 200 µM (mean ± SEM) for every item shown.
# unit: % | format: bare number

Can you look up the measured % Inhibition of OCT2-dependent MF uptake at 200 µM (mean ± SEM) of CC(=O)NCCCS(=O)(=O)O [Acamprosate] for me? 0.9

Can you look up the measured % Inhibition of OCT2-dependent MF uptake at 200 µM (mean ± SEM) of CCOC(=O)C1=C(COCCN)NC(C)=C(C(=O)OC)C1c1ccccc1Cl (stereo not shown) for me? 110.0

Can you look up the measured % Inhibition of OCT2-dependent MF uptake at 200 µM (mean ± SEM) of CN(C)CCC=C1c2ccccc2CCc2ccccc21 for me? 101.7

Can you look up the measured % Inhibition of OCT2-dependent MF uptake at 200 µM (mean ± SEM) of COc1ccccc1OCCNCC(O)COc1cccc2[nH]c3ccccc3c12 (stereo not shown) for me? 98.6
